Below, each of the molecules is paired with its reported pIC50 value.
biological target: PIK3CA_C242 (Homo sapiens, UniProt P42336); construct: endogenous in cells; host or cells: Jurkat cell lysate; assay: Proteomic TE50 (IA-DTB / TMT mass spectrometry) in Jurkat cell lysate; type: binding; conditions: 1 hour at rt, 7-point dose response
In plain terms, pIC50 is the concentration in mol/L turned into minus its base-10 logarithm.

Answered examples (3):
>>> observedresult("C[C@H](/C=C\\S(C)(=O)=O)NC(=O)C1(F)CCN(S(=O)(=O)c2ccc(N3CCOCC3)cc2-c2ccccc2Cl)CC1 [Compound 121]")
6.06
>>> observedresult("Cc1ccccc1-c1cc(OC(C)C)ccc1S(=O)(=O)N1CCC(F)(C(=O)N[C@H](C)/C=C\\S(C)(=O)=O)CC1 [Compound 103]")
6.08
>>> observedresult("COc1cccc(-c2cc(Cl)ccc2S(=O)(=O)N2CCC(F)(C(=O)NC/C=C/S(C)(=O)=O)CC2)c1 [Compound 36]")
6.12

Moving on to another molecule below.
Sure, the documented pIC50 for COc1ccc(S(=O)(=O)N2CCC(F)(C(=O)N[C@H](C)/C=C\S(C)(=O)=O)CC2)c(-c2ccccc2Cl)c1Cl [Compound 32] is 6.09

###

biological target: PIK3CA (Homo sapiens, UniProt P42336); construct: endogenous in cells; assay: In vitro ELISA target engagement assay for PIK3CA in Jurkat cellular lysate (competition with PIK3CA Biotin Probe); conditions: 1 hour at rt, then 500 nM PIK3CA Biotin Probe, read-out: Elisa Target Engagement Assay (TE50)
Sequence (P42336 whole entry): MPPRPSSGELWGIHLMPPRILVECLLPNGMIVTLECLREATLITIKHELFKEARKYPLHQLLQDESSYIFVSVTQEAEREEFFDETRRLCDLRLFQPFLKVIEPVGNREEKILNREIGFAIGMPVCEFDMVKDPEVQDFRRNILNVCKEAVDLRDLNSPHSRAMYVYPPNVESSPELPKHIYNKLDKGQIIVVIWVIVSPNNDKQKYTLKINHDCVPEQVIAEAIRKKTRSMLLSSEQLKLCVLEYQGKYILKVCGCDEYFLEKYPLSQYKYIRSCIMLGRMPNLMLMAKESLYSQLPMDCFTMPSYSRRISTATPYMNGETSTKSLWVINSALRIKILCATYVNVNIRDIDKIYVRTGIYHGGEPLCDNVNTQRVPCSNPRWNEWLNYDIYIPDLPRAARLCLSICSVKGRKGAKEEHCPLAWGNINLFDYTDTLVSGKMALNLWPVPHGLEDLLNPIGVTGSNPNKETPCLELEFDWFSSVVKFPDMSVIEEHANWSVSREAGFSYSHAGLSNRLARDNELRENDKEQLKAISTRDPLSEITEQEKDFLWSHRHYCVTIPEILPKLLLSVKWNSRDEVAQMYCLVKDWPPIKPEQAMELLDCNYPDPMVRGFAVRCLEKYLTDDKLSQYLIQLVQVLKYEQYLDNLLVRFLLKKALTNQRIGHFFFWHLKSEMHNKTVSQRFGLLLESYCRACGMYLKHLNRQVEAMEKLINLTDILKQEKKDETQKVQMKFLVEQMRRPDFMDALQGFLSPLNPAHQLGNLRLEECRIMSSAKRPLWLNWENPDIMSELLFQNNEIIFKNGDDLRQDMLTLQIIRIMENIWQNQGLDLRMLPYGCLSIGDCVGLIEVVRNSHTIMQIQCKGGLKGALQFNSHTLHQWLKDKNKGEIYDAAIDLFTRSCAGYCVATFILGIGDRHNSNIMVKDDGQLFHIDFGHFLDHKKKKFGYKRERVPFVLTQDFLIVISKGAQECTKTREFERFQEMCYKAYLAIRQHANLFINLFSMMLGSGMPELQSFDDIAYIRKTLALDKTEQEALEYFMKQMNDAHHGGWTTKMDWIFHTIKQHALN
Sequence (P27986 whole entry partner): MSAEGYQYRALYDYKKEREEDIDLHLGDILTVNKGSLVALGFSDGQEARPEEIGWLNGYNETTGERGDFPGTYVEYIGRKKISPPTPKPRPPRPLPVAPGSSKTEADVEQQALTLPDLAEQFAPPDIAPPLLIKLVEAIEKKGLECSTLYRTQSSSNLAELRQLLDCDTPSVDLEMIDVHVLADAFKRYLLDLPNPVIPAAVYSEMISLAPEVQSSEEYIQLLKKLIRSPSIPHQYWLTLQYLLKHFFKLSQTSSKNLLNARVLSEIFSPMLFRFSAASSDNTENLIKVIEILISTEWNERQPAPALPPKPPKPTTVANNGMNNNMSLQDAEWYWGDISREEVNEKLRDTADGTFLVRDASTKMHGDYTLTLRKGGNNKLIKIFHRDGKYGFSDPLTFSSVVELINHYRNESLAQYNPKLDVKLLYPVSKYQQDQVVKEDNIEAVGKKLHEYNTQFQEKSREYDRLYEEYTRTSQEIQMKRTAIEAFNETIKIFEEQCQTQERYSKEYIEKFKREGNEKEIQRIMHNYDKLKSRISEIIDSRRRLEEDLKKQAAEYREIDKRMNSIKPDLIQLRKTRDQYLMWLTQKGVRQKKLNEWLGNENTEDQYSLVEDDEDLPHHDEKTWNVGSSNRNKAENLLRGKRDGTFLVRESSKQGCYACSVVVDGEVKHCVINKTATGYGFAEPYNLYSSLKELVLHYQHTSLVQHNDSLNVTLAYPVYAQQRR
IC50 strictly less than 300 nM = label 1. Otherwise label 0.

>>> classlabel("C[C@H](/C=C\\S(C)(=O)=O)NC(=O)[C@@]1(F)CCCN(C(=O)[C@@H]2CN(CC(F)(F)F)C[C@@H]2c2c(F)ccc(F)c2Cl)CC1 (single isomer, unassigned)")
"label 1"
>>> classlabel("C[C@H](/C=C\\S(C)(=O)=O)NC(=O)[C@@]1(F)CCCN(C(=O)[C@H]2CN(Cc3ccccc3)C[C@H]2c2ccccc2Cl)CC1 (single isomer, unassigned)")
"label 0"
>>> classlabel("COc1ccc(S(=O)(=O)N2CCC(OC)(C(=O)N[C@H](C)/C=C\\S(C)(=O)=O)CC2)c(-c2ccccc2Cl)c1")
"label 0"
>>> classlabel("CC(=O)c1ccc(S(=O)(=O)N2CCC(F)(C(=O)N[C@H](C)/C=C/C(=O)N3CC(F)(F)C3)CC2)c(-c2ccccc2Cl)c1")
"label 0"
>>> classlabel("CC#Cc1cccc(-c2cc(Cl)ccc2S(=O)(=O)N2CCC(F)(C(=O)N[C@@H](C)/C=C\\S(C)(=O)=O)CC2)c1")
"label 1"
>>> classlabel("COc1cccc(-c2cc(OC)ccc2S(=O)(=O)N2CCC(F)(C(=O)N[C@@H](C)/C=C\\S(C)(=O)=O)CC2)c1")
"label 1"

q: Confirm or reject: IC50 of "C[C@H](/C=C\S(C)(=O)=O)NC(=O)C1(F)CCN(C(=O)[C@H]2CN(CC(F)(F)c3ccccc3)C[C@H]2c2ccccc2Cl)CC1" lies strictly below 300 nM
a: label 0

q: Confirm or reject: IC50 of "Cc1ccccc1-c1cc(OC2CC2)ccc1S(=O)(=O)N1CCC(F)(C(=O)N[C@H](C)/C=C\S(C)(=O)=O)CC1" lies strictly below 300 nM
a: label 0

q: Confirm or reject: IC50 of "C[C@H](/C=C\S(C)(=O)=O)NC(=O)[C@]1(F)CCN(S(=O)(=O)c2ccc(Br)cc2-c2ccccc2Cl)[C@H](C)C1" lies strictly below 300 nM
a: label 1

q: Confirm or reject: IC50 of "O=C(NCC1=CS(=O)(=O)C1)C1(F)CCN(S(=O)(=O)c2ccc(Br)cc2-c2ccccc2Cl)CC1" lies strictly below 300 nM
a: label 1

meta.source: patent US20250026721A1
